B1: P2RY14 (parent)
chain: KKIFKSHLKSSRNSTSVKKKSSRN

- Variants of: B1
- assayInfo: protein stability index of a GFP-peptide fusion (GPS, HEK-293T) (PSI 1-6); higher = more stable;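 further: lentivirally expressed fusions sorted by FACS into six bins by GFP to DsRed ratio, PSI derived from sequencing read proportions per bin multiplied by bin number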
- conditions: c terminus: a fixed tail appended
# label = yes if protein stability index >= 4 else no

> print(dat)
                   primarysequence  classassignment
1  KKIFKSHLKSSRNSTSVKKGSSRN [K20G]               no

stdin: Can KKIFKSHLKSSRNSTSVKKKSSRC [N24C] be said to have protein stability index at or above 4?
stdout: no

stdin: State whether the measured protein stability index reaches 4, counting equality as reaching it, for KKIFKSHLKSSPNSTSVKKKSSRN [R12P]
stdout: yes

stdin: Does KKIFKSHLKSSRNVTSVKKKSSRN [S14V] have a reported protein stability index of at least 4?
stdout: no

stdin: Threshold query (protein stability index >= 4) on KKIFKSHLKSSRNSTYVKKKSSRN [S16Y]
stdout: yes

stdin: Dear colleague, could you confirm whether RKIFKSHLKSSRNSTSVKKKSSRN [K1R] has protein stability index at or above 4?
stdout: no

stdin: Check the entry KKIFKSHLKSSRNSTSVKKKSSNN [R23N] : does protein stability index equal or exceed 4?
stdout: yes

stdin: Does the variant KKIFKSHLCSSRNSTSVKKKSSRN [K9C] have recorded protein stability index that is 4 or more?
stdout: yes

stdin: Check the entry KKIFKSHLKSSRNSTSVKKKSSRF [N24F] : does protein stability index equal or exceed 4?
stdout: no

stdin: Does IKIFKSHLKSSRNSTSVKKKSSRN [K1I] have a reported protein stability index of at least 4?
stdout: no

stdin: Tell me whether protein stability index is at least 4 here: KKIYKSHLKSSRNSTSVKKKSSRN [F4Y]
stdout: no

stdin: Decide: is the reported value of protein stability index for KKIFKSHLKSSRNSTSVKKKSNRN [S22N] equal to or greater than 4?
stdout: yes

stdin: Test whether the variant KKIFKSHLKSSRNSTSAKKKSSRN [V17A] records protein stability index of 4 or higher.
stdout: yes

stdin: State whether the measured protein stability index reaches 4, counting equality as reaching it, for KKISKSHLKSSRNSTSVKKKSSRN [F4S]
stdout: yes

stdin: In plain terms: is recorded protein stability index at least 4 for KKIFKSHLKSSRNSESVKKKSSRN [T15E] ?
stdout: yes

stdin: Given the entry KKIFKSHLKSSRNSTSVKKKSSLN [R23L] , answer whether its protein stability index meets or surpasses 4.
stdout: no

stdin: Does the reported protein stability index for KKIFKKHLKSSRNSTSVKKKSSRN [S6K] fall at or above the 4 mark?
stdout: yes

stdin: State whether the measured protein stability index reaches 4, counting equality as reaching it, for KKIFKSHLKRSRNSTSVKKKSSRN [S10R]
stdout: yes

stdin: Tell me whether protein stability index is at least 4 here: KKIFKSALKSSRNSTSVKKKSSRN [H7A]
stdout: no

stdin: Could you verify whether the entry KKIFKSHLISSRNSTSVKKKSSRN [K9I] shows protein stability index of no less than 4?
stdout: no

stdin: Hello, I need to know if KKIFKSHLKSSRNSTSVKKKSHRN [S22H] has measured protein stability index not below 4. Thanks!
stdout: yes

stdin: Is reported protein stability index greater than or equal to 4 here: KNIFKSHLKSSRNSTSVKKKSSRN [K2N]
stdout: yes

stdin: Does KKIFKSHLKSSRNSTSVKKWSSRN [K20W] have a reported protein stability index of at least 4?
stdout: no

stdin: Hi, just wondering whether KKIFKSHLKSSRNSTWVKKKSSRN [S16W] shows protein stability index of 4 or higher.
stdout: no

Where these numbers come from: the supplement of paper PMC10567573
